Provenance of the data: patent US5834506A

test: Cellular toxicity in uninfected CEM cells (TC50); type: cell-based; settings: human, inhibits 50% of the viability of uninfected cells
Each record here notes measured CC50.
observable: CC50 (µM)

• Cc1cc(SC2=C(O)C[C@@](CCc3ccccc3)(c3ccccc3)OC2=O)c(C(C)(C)C)cc1CO [Example 17] = 60
• Cc1cc(SC2=C(O)CC(CCc3ccc(N)cc3)(c3ccccc3)OC2=O)c(C(C)(C)C)cc1CO (stereo not drawn) [Example 15] = 94
• Cc1cc(SC2=C(O)CC(CCc3ccc(N)cc3)(CCc3ccc(N)cc3)OC2=O)c(C(C)(C)C)cc1CO [Example 16] = 72

###

Each record here notes measured pIC50.
target: HIV-1 protease (Human immunodeficiency virus type 1 group M subtype B); construct: Recombinant HIV-1 protease (>96% purity); purchased Bachem Bioscience Inc. (King of Prussia, PA); experiment: biochemical; details: read-out: Inhib of HIV-Protease IC50
pIC50: −log10 of the molar value.
observable: pIC50

• Cc1cc(SC2=C(O)CC(CCc3ccc(O)cc3)(C(C)C)OC2=O)c(C(C)(C)C)cc1OS(=O)(=O)N1CCN(C)CC1 (stereo not shown) = 8.51
• Cc1ccc(C(C)(C)C)c(SC2=C(O)CC(CCc3ccccc3)(c3ccccc3)OC2=O)c1 (racemic) [Ref B, reference compound] = 7.46
• Cc1cc(SC2=C(O)CC(CCc3ccc(O)cc3)(C(C)C)OC2=O)c(C(C)(C)C)cc1CO (racemic) = 8.44
• Cc1cc(SC2=C(O)C[C@@](CCc3ccc(O)cc3)(C(C)C)OC2=O)c(C(C)(C)C)cc1CO = 9.00
• Cc1cc(SC2=C(O)CC(CCc3cccc(O)c3)(c3ccccc3)OC2=O)c(C(C)(C)C)cc1CO (stereo not shown) = 8.60
• Cc1cc(SC2=C(O)CC(C)(CCc3ccc(O)cc3)OC2=O)c(C(C)(C)C)cc1OS(=O)(=O)N(C)C (racemic) = 8.80
• Cc1cc(SC2=C(O)CC(CCc3ccc(O)cc3)(C3CCCCC3)OC2=O)c(C(C)(C)C)cc1CO (stereo not shown) = 8.60

###

Each record here notes measured CC50.
experiment: Cellular toxicity in uninfected CEM cells (TC50); format: cell-based; details: human, inhibits 50% of the viability of uninfected cells
observable: CC50 (µM)

* Cc1cc(SC2=C(O)CC(C)(CCc3ccc(O)cc3)OC2=O)c(C(C)(C)C)cc1OS(N)(=O)=O (stereo not drawn) [Example 43] | 69
* Cc1cc(SC2=C(O)CC(CCc3ccc(O)cc3)(CCc3ccc(O)cc3)OC2=O)c(C(C)(C)C)cc1CO [Example 14] | 69
* Cc1cc(SC2=C(O)CC(CCc3ccc(O)cc3)(C(C)C)OC2=O)c(C(C)(C)C)cc1N(C)C (stereo not drawn) [Example 93] | 68

###

Target: HIV-1 protease (Human immunodeficiency virus type 1 group M subtype B)
Construct: Recombinant HIV-1 protease (>96% purity); purchased Bachem Bioscience Inc. (King of Prussia, PA)
Test: biochemical
Details: 6.0 nM HIV-1 protease, 40 μM substrate III, 37° C., 5 minutes; read-out: Inhib of HIV-Protease IC50
Excerpt: The testing of specific 5,6-dihydropyrones as inhibitors of the HIV aspartyl protease, based on the study of the hydrolysis of an undecapeptide enzyme substrate, and the testing of the 5,6-dihydropyrones as inhibitors of viral growth and infectivity, based on the study of infection of H9 cell lines by the HIV-1iiib strain, are also disclosed. […] The methods employed follow the procedures of Tummino, et al. (Archives of Biochemistry and Biophysics 1995, 316, 523). […]
Each record is given t if its reported IC50 is strictly below 6 nM. Records at or above 6 nM are given f.

* CCNS(=O)(=O)Oc1cc(C(C)(C)C)c(SC2=C(O)CC(CCc3ccc(O)cc3)(C3CCN(C(C)=O)CC3)OC2=O)cc1C (centres unmarked) [Example 89] | f
* Cc1cc(SC2=C(O)CC(CCc3ccc(O)cc3)(C(C)C)OC2=O)c(C(C)(C)C)cc1OCCO (racemic) [Example 5] | t
* Cc1cc(SC2=C(O)CC(CCc3ccc(O)cc3)(C(C)C)OC2=O)c(C(C)(C)C)cc1N(C)C (centres unmarked) [Example 93] | f
* Cc1ccc(C(C)(C)C)c(SC2=C(O)CC(CCc3ccccc3)(c3ccc(OCCN4CCNCC4)cc3)OC2=O)c1 (centres unmarked) [Example 35] | f
* Cc1cc(SC2=C(O)CC(C)(CCc3ccc(O)cc3)OC2=O)c(C(C)(C)C)cc1NS(=O)(=O)c1ccc(F)cc1 (centres unmarked) [Example 71] | t
